system: hBChE
Please note: yes applies when RA at 100 µM is 90% or greater, and no applies otherwise.

Please tell me: is the compound "COC(=O)c1cc2c(cnn2CC2CC2)cc1Oc1ccc(F)cc1F" at or over 90% in terms of RA at 100 µM?
no

Please tell me: is the compound "Cc1ccc(Oc2ccc(C(=O)NCc3ccncc3)cc2)cc1" at or over 90% in terms of RA at 100 µM?
yes

Please tell me: is the compound CC(C)Cn1ncc2cc(Oc3ccc(F)cc3F)c(C(=O)NCCN(C)C)cc21 [Compound 72, reference compound] at or over 90% in terms of RA at 100 µM?
no

Please tell me: is the compound "CC(O)(O)CNC(=O)c1ccc(-c2cc(C(=O)NC3CC3)cc(F)c2O)nc1" at or over 90% in terms of RA at 100 µM?
no

Please tell me: is the compound "Cn1nc(C(C)(C)C)cc1NC(=O)Nc1ccc(Cl)cc1" at or over 90% in terms of RA at 100 µM?
no

Please tell me: is the compound "NC(=O)c1ccccc1NC(=O)Nc1ccc(Cl)c(Cl)c1" at or over 90% in terms of RA at 100 µM?
no

* * *

test: Pharmacokinetic study in mice; conditions: male, CD-1, mouse, brain, ip, 10 mg/kg
Quantity name: k el (s⁻¹)
Answers are plain numbers, in s⁻¹.

| Smiles text | k el [s⁻¹] |
| --- | --- |
| CN(C)CCNC(=O)c1cc2c(cnn2CC2CCCCC2)cc1Cc1ccc(F)cc1F | 0.000128 |

Field: next molecule
# input molecule: "CC(C)Cn1ncc2cc(Cc3ccc(F)cc3F)c(C(=O)NCCN(C)C)cc21" ; wanted: its k el
5.5e-05

* * *

system: hAChE
Consider the following compounds; for each one, report its RA at 100 µM.
Numbers only, in %.

// worked examples, RA at 100 µM included
| Compound | Measurement units | Meas value |
| --- | --- | --- |
| COC1CCCN(CCNC(=O)c2cc3nn(CC4CCCCC4)cc3cc2Oc2ccc(F)cc2F)C1 (stereo not shown) | % | 51.8 |
| COc1ccc(Oc2cc3cnn(CC(C)C)c3cc2C(=O)NCCN(C)C)cc1 | % | 75.2 |
| CN(C)CCNC(=O)c1cc2c(cnn2CC2CCCCC2)cc1Cc1ccc(F)cc1F | % | 53.4 |

Field: next compound
# input compound: CN(C)CCNC(=O)c1cc2c(cnn2C2C=CCCC2)cc1Oc1ccc(F)cc1F (stereo not shown) ; wanted: its RA at 100 µM
52.9

The origin of these recorded values is paper PMC12406203.
